biological target: PNPLA3 (Homo sapiens); construct: host or cells: Huh7; assay: Huh7 untagged PNPLA3 immunofluorescence on lipid droplets; format: cell-based; conditions: anti-PNPLA3 IF; representative curve, Figure 3E
measurementType: EC50
Note to self: number, then unit, no commentary.

I'm curious: which EC50 was measured for Cc1cccc(Cc2nc(C)c(C(=O)Nc3cc(O)ccc3Cl)s2)c1 tested on PNPLA3 (Homo sapiens)?
341 nM

----------
Biological target: PNPLA3-tagRFP (Homo sapiens, UniProt Q9NST1)
Construct: host or cells: Huh7
Sequence (Q9NST1 1-481): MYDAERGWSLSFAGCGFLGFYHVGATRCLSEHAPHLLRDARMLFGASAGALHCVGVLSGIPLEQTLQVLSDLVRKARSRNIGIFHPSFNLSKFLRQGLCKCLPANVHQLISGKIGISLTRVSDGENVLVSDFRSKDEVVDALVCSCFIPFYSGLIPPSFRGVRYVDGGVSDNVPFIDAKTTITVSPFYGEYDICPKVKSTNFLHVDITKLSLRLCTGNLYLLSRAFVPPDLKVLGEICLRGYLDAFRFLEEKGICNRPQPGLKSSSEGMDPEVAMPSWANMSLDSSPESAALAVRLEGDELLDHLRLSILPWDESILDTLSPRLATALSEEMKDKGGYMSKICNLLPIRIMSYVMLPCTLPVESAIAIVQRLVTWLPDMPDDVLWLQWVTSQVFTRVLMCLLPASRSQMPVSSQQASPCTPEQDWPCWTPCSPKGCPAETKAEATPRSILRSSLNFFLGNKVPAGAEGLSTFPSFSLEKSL
Experiment: Huh7 PNPLA3-tagRFP (WT) reduction on lipid droplets
Type: cell-based
Conditions: representative dose-response curve, Figure 3B
measurementType: EC50 (nM)
Use nM as the unit, but write only the number.

# get_value(readout='EC50', item= Cc1cccc(Cc2nc(C)c(C(=O)Nc3cc(O)ccc3Cl)s2)c1 [NUV-244] )
213

----------
target: PNPLA2 (Homo sapiens, UniProt Q96AD5); experiment: Huh7 PNPLA2 immunofluorescence counter assay (PNPLA2 on lipid droplets); assay type: cell-based; set-up: immunofluorescence against endogenous PNPLA2 on lipid droplets in Huh7 cells; endogenous in cells; host or cells: Huh7; details: HTS batch (hit); read-out: EC50 Huh7, PNPLA2 IF
Sequence (Q96AD5 whole entry): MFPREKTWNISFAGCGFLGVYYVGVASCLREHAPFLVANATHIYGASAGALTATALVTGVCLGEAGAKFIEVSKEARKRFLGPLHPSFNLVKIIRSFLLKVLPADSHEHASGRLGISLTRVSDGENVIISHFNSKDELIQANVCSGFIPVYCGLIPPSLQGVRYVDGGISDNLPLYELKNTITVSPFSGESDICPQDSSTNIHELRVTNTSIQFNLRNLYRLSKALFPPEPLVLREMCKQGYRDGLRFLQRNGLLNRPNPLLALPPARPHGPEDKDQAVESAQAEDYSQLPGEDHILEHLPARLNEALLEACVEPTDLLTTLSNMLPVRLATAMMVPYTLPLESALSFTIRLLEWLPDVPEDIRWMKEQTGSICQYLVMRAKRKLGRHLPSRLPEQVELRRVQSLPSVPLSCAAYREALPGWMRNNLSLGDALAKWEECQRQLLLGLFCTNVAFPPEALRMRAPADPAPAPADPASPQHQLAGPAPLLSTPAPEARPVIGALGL
measurementType: EC50

# get_value(readout='EC50', item= Cc1cccc(Cc2nc(C)c(C(=O)Nc3cc(O)ccc3Cl)s2)c1 )
> 18 µM

----------
target: PNPLA3 I148M-tagRFP (Homo sapiens, UniProt Q9NST1, I148M); construct: host or cells: Huh7; experiment: Huh7 PNPLA3 I148M-tagRFP reduction on lipid droplets (high-content imaging); assay type: cell-based; details: HTS batch (hit); 24h; two independent determinations; read-out: EC50 Huh7, PNPLA3 I148M-tagRFP reduction
measurementType: pEC50
// field semantics: pEC50 = negative decimal log of concentration (mol/L)

# get_value(readout='pEC50', item= Cc1cccc(Cc2nc(C)c(C(=O)Nc3cc(O)ccc3Cl)s2)c1 [NUV-244] )
6.64

----------
biological target: PNPLA3 I148M-tagRFP (Homo sapiens, UniProt Q9NST1, I148M); construct: host or cells: Huh7; assay: Huh7 PNPLA3 I148M-tagRFP reduction on lipid droplets (high-content imaging); format: cell-based; conditions: representative dose-response curve, Figure 2D; read-out: EC50 [M] Huh7, PNPLA3-I148M-tagRFP
measurementType: EC50 (M)
Use M as the unit, but write only the number.

# get_value(readout='EC50', item= Cc1cccc(Cc2nc(C)c(C(=O)Nc3cc(O)ccc3Cl)s2)c1 [NUV-244] )
2.05e-07

----------
Target: PNPLA3 I148M-tagRFP (Homo sapiens, UniProt Q9NST1, I148M)
Construct: host or cells: Huh7
Sequence (Q9NST1 1-481 I148M): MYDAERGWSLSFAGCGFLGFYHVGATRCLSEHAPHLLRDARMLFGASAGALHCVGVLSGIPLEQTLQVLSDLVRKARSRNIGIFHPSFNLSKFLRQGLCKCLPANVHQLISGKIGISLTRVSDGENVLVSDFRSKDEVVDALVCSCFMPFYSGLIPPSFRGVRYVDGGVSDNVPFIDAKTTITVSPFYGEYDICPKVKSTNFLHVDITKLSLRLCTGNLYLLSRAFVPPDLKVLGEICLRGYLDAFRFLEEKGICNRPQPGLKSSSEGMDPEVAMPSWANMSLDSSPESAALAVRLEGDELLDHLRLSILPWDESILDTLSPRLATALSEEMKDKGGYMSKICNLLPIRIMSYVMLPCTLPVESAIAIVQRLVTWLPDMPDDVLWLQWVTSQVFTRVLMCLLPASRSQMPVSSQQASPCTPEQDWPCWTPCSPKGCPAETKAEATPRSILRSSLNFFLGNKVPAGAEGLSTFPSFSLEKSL
Assay: Huh7 PNPLA3 I148M-tagRFP reduction on lipid droplets (high-content imaging)
Type: cell-based
Details: resynthesis; representative curve, Figure 4C; read-out: EC50 [M] Huh7, PNPLA3 I148M-tagRFP intensity on lipid droplets
measurementType: EC50 (M)
Use M as the unit, but write only the number.

# get_value(readout='EC50', item= Cc1cccc(Cc2nc(C)c(C(=O)Nc3cc(O)ccc3Cl)s2)c1 [NUV-244] )
3.8e-07

----------
target: PNPLA3 I148M-tagRFP (Homo sapiens, UniProt Q9NST1, I148M); construct: host or cells: Huh7; assay: Huh7 PNPLA3 I148M-tagRFP reduction on lipid droplets (high-content imaging); format: cell-based; conditions: representative dose-response curve, Figure 3B; read-out: EC50 [M] Huh7, PNPLA3 I148M-tagRFP
measurementType: EC50 (M)
Use M as the unit, but write only the number.

# get_value(readout='EC50', item= Cc1cccc(Cc2nc(C)c(C(=O)Nc3cc(O)ccc3Cl)s2)c1 [NUV-244] )
3.51e-07

----------
target: PNPLA3 I148M (Homo sapiens, UniProt Q9NST1, I148M); assay: Huh7 untagged PNPLA3 I148M immunofluorescence on lipid droplets; format: cell-based; parameters: host or cells: Huh7; settings: anti-PNPLA3 IF; representative curve, Figure 3E
measurementType: EC50 (µM)
Use µM as the unit, but write only the number.

# get_value(readout='EC50', item= Cc1cccc(Cc2nc(C)c(C(=O)Nc3cc(O)ccc3Cl)s2)c1 )
0.153
